# Test system: JVM-2 (B-Cell Non-Hodgkin's Lymphoma);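 further: after 72 h of two-drug dosing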
# assayMethodText: Bliss excess, mean over the matrix (fraction); higher = more synergy
quantityName: Bliss excess
Please respond with just the number, no unit label.

Identify measured Bliss excess corresponding to CN(CCO)CC[C@H](CSc1ccccc1)Nc1ccc(S(=O)(=O)NC(=O)c2ccc(N3CCC([C@@H](O)c4ccccc4-c4ccc(Cl)cc4)CC3)cc2)cc1S(=O)(=O)C(F)(F)F [AZD4320] + CCN(CCO)CCCOc1ccc2c(Nc3cc(CC(=O)Nc4cccc(F)c4)[nH]n3)ncnc2c1 [AZD2811] (first compound max 1 µM, 7x7, partner max 1 µM)
0.0677

Identify measured Bliss excess corresponding to Cc1c2c(nn1C)CSCc1cc(n(C)n1)CSc1cc(c3ccccc3c1)OCCCc1c(C(=O)O)n(C)c3c-2c(Cl)ccc13 [AZD5991] + Cn1cnc2c(F)c(Nc3ccc(Br)cc3Cl)c(C(=O)NOCCO)cc21 [Selumetinib] (first compound max 1 µM, 7x7, partner max 3 µM)
0.0529

Identify measured Bliss excess corresponding to CCN(CCO)CCCOc1ccc2c(Nc3cc(CC(=O)Nc4cccc(F)c4)[nH]n3)ncnc2c1 [AZD2811] + C[C@@H]1COCCN1C2=NC(=NC(=C2)C3(CC3)[S@](=N)(=O)C)C4=C5C=CNC5=NC=C4 [AZD6738] (first compound max 1 µM, 7x7, partner max 10 µM)
-0.0809

Identify measured Bliss excess corresponding to CCc1c2c(nc3ccc(O)cc13)-c1cc3c(c(=O)n1C2)COC(=O)[C@]3(O)CC [SN-38] + CN(C)CCCOc1ccc(-c2ccc3ncc4c(c3c2)n(C2CCOCC2)c(=O)n4C)cn1 [AZD0156] (first compound max 0.3 µM, 7x7, partner max 1 µM)
0.0156

Identify measured Bliss excess corresponding to COc1nnc2ccc(N3CCC(c4ccc(OCCN5CCN(C)C(=O)[C@H]5C)cc4)CC3)nn12 [AZD5153] + C=CCn1c(=O)c2cnc(Nc3ccc(N4CCN(C)CC4)cc3)nc2n1-c1cccc(C(C)(C)O)n1 [AZD1775] (first compound max 1 µM, partner max 1 µM)
-0.0959
